Assay: Solvent scope of N,N′-dialkylaldaramides (1%) or N,N′-dialkylpentaramides (1%): gelation/solubility behaviour in solvents
Format: physicochemical
Set-up: key: g = gelation; s = soluble; p = precipitates; c = crystallizes; ns = not soluble; v = viscous; g* = unstable gel, precipitates; cg = crystalline gel
Details: 1% gelling agent; n-butylacetate
value-type: Gelation/solubility behaviour in n-butylacetate

>  <compound>
O=C(NC1CCCCCCCCCCC1)[C@@H](O)[C@@H](O)[C@H](O)[C@H](O)C(=O)NC1CCCCCCCCCCC1 [Example 16, dicyclododecyl D-mannaramide]

>  <test-result>
ns

$$$$
>  <compound>
CCCCCCCCNC(=O)[C@@H](O)[C@@H](O)[C@H](O)[C@H](O)C(=O)NCCCCCCCC [Example 9, dioctyl D-mannaramide]

>  <test-result>
ns

$$$$
>  <compound>
CC(C)=CCCC(C)CCNC(=O)[C@@H](O)[C@@H](O)[C@H](O)[C@@H](O)C(=O)NCCC(C)CCC=C(C)C (stereo partly drawn) [Example 11, dicitronellyl D-glucaramide]

>  <test-result>
p

$$$$
>  <compound>
CCCCCCCCNC(=O)[C@@H](O)[C@H](O)[C@H](O)[C@@H](O)C(=O)NCCCCCCCC [Example 10, dioctyl galactaramide]

>  <test-result>
ns

$$$$
>  <compound>
O=C(NC1CCCCCCCCCCC1)[C@@H](O)[C@H](O)[C@H](O)[C@@H](O)C(=O)NC1CCCCCCCCCCC1 [Example 17, dicyclododecyl galactaramide]

>  <test-result>
ns

$$$$
>  <compound>
CCCCCCCCCCCCNC(=O)[C@@H](O)[C@@H](O)[C@H](OC)[C@@H](O)C(=O)NCCCCCCCCCCCC [Example 21, 3-O-methyl-didodecyl D-glucaramide]

>  <test-result>
c

$$$$
>  <compound>
CCCCCCCCNC(=O)[C@@H](O)[C@@H](O)[C@H](O)[C@@H](O)C(=O)NCCCCCCCC [Example 8, dioctyl D-glucaramide]

>  <test-result>
ns

$$$$
>  <compound>
CCCCNC(=O)[C@@H](O)[C@@H](O)[C@H](O)[C@H](O)C(=O)NCCCC [Example 2, dibutyl D-mannaramide]

>  <test-result>
Ns

$$$$
>  <compound>
CCCCCCCC/C=C\CCCCCCCCNC(=O)[C@@H](O)[C@@H](O)[C@H](O)[C@@H](O)C(=O)NCCCCCCCC/C=C\CCCCCCCC [Example 19, dioleyl D-glucaramide]

>  <test-result>
c

$$$$
>  <compound>
CCCCCCCCCCCCNC(=O)[C@@H](O)[C@@H](O)[C@H](O)[C@@H](O)C(=O)NCCCCCCCCCCCC [Example 12, didodecyl D-glucaramide]

>  <test-result>
ns

$$$$

Fill in the blank: the reported Gelation/solubility behaviour in n-butylacetate of CO[C@@H]([C@H](O)[C@H](O)C(=O)NC1CCCCCCCCCCC1)[C@@H](O)C(=O)NC1CCCCCCCCCCC1 [Example 22, 3-O-methyl-dicyclododecyl D-glucaramide] is ____.
p

Fill in the blank: the reported Gelation/solubility behaviour in n-butylacetate of CCCCNC(=O)[C@@H](O)[C@H](O)[C@H](O)[C@@H](O)C(=O)NCCCC [Example 3, dibutyl galactaramide] is ____.
ns

----------
Test: Solvent scope of N,N′-dialkylaldaramides (1%) or N,N′-dialkylpentaramides (1%): gelation/solubility behaviour in solvents
Type: physicochemical
Set-up: key: g = gelation; s = soluble; p = precipitates; c = crystallizes; ns = not soluble; v = viscous; g* = unstable gel, precipitates; cg = crystalline gel
Conditions: 1% gelling agent; n-butylacetate
value-type: Gelation/solubility behaviour in n-butylacetate

>  <compound>
CCCCCCCCCCCCNC(=O)[C@@H](O)[C@@H](O)[C@H](O)[C@H](O)C(=O)NCCCCCCCCCCCC [Example 13, didodecyl D-mannaramide]

>  <test-result>
ns

$$$$
>  <compound>
O=C(NC1CCCCC1)[C@@H](O)[C@@H](O)[C@H](O)[C@@H](O)C(=O)NC1CCCCCCCCCCC1

>  <test-result>
p

$$$$
>  <compound>
CCCCNC(=O)[C@@H](O)[C@@H](O)[C@H](O)[C@@H](O)C(=O)NCCCC

>  <test-result>
ns

$$$$

----------
Test: Solvent scope of N,N′-dialkylaldaramides (1%) or N,N′-dialkylpentaramides (1%): gelation/solubility behaviour in solvents
Format: physicochemical
Parameters: key: g = gelation; s = soluble; p = precipitates; c = crystallizes; ns = not soluble; v = viscous; g* = unstable gel, precipitates; cg = crystalline gel
Details: 1% gelling agent; Water

>  <compound>
CCCCNC(=O)[C@@H](O)[C@@H](O)[C@H](O)[C@@H](O)C(=O)NCCCC

>  <Gelation/solubility behaviour in Water>
ns

$$$$
>  <compound>
CCCCCCCC/C=C\CCCCCCCCNC(=O)[C@@H](O)[C@@H](O)[C@H](O)[C@@H](O)C(=O)NCCCCCCCC/C=C\CCCCCCCC [Example 19, dioleyl D-glucaramide]

>  <Gelation/solubility behaviour in Water>
ns

$$$$
>  <compound>
CCCCCCCCCCCCNC(=O)[C@@H](O)[C@H](O)[C@H](O)[C@@H](O)C(=O)NCCCCCCCCCCCC [Example 14, didodecyl galactaramide]

>  <Gelation/solubility behaviour in Water>
ns

$$$$

----------
Experiment: Solvent scope of N,N′-dialkylaldaramides (1%) or N,N′-dialkylpentaramides (1%): gelation/solubility behaviour in solvents
Format: physicochemical
Set-up: key: g = gelation; s = soluble; p = precipitates; c = crystallizes; ns = not soluble; v = viscous; g* = unstable gel, precipitates; cg = crystalline gel
Conditions: 1% gelling agent; 2-octanol
value-type: Gelation/solubility behaviour in 2-octanol

Examples from the recorded data:
>  <compound>
O=C(NC1CCCCCCCCCCC1)[C@@H](O)[C@@H](O)[C@H](O)[C@@H](O)C(=O)NC1CCCCCCCCCCC1 [Example 15, dicyclododecyl D-glucaramide]

>  <test-result>
s

$$$$
>  <compound>
CCCCCCCCNC(=O)[C@@H](O)[C@@H](O)[C@H](O)[C@@H](O)C(=O)NCCCCCCCC [Example 8, dioctyl D-glucaramide]

>  <test-result>
ns

$$$$
>  <compound>
CO[C@@H]([C@H](O)[C@H](O)C(=O)NC1CCCCC1)[C@@H](O)C(=O)NC1CCCCC1 [Example 20, 3-O-methyl-dicyclohexyl D-glucaramide]

>  <test-result>
p

$$$$
>  <compound>
CCCCCCCCCCCCNC(=O)[C@@H](O)[C@@H](O)[C@H](O)[C@H](O)C(=O)NCCCCCCCCCCCC [Example 13, didodecyl D-mannaramide]

>  <test-result>
p

$$$$
>  <compound>
O=C(NC1CCCCC1)[C@@H](O)[C@@H](O)[C@@H](O)C(=O)NC1CCCCC1 [Example 4, dicyclohexyl D-ribaramide]

>  <test-result>
p

$$$$

With those in mind, consider the next compound.
Fill in the blank: the reported Gelation/solubility behaviour in 2-octanol of CCCCCCCCNC(=O)[C@@H](O)[C@H](O)[C@H](O)[C@@H](O)C(=O)NCCCCCCCC [Example 10, dioctyl galactaramide] is ____.
ns

----------
Assay: Solvent scope of N,N′-dialkylaldaramides (1%) or N,N′-dialkylpentaramides (1%): gelation/solubility behaviour in solvents
Format: physicochemical
Parameters: key: g = gelation; s = soluble; p = precipitates; c = crystallizes; ns = not soluble; v = viscous; g* = unstable gel, precipitates; cg = crystalline gel
Conditions: 1% gelling agent; Water
value-type: Gelation/solubility behaviour in Water

Examples from the recorded data:
>  <compound>
CCCCCCCCCCCCNC(=O)[C@@H](O)[C@@H](O)[C@H](OC)[C@@H](O)C(=O)NCCCCCCCCCCCC [Example 21, 3-O-methyl-didodecyl D-glucaramide]

>  <Gelation/solubility behaviour in Water>
ns

$$$$
>  <compound>
O=C(NC1CCCCC1)[C@@H](O)[C@@H](O)[C@@H](O)C(=O)NC1CCCCC1 [Example 4, dicyclohexyl D-ribaramide]

>  <Gelation/solubility behaviour in Water>
ns

$$$$
>  <compound>
CC(C)=CCCC(C)CCNC(=O)[C@@H](O)[C@@H](O)[C@H](O)[C@@H](O)C(=O)NCCC(C)CCC=C(C)C (stereo partly drawn) [Example 11, dicitronellyl D-glucaramide]

>  <Gelation/solubility behaviour in Water>
c

$$$$
>  <compound>
CCCCCCCCNC(=O)[C@@H](O)[C@@H](O)[C@H](O)[C@H](O)C(=O)NCCCCCCCC [Example 9, dioctyl D-mannaramide]

>  <Gelation/solubility behaviour in Water>
ns

$$$$
>  <compound>
CCCCNC(=O)[C@@H](O)[C@H](O)[C@H](O)[C@@H](O)C(=O)NCCCC [Example 3, dibutyl galactaramide]

>  <Gelation/solubility behaviour in Water>
ns

$$$$

Fill in the blank: the reported Gelation/solubility behaviour in Water of CCCCNC(=O)[C@@H](O)[C@@H](O)[C@H](O)[C@H](O)C(=O)NCCCC [Example 2, dibutyl D-mannaramide] is ____.
Ns
